Assay: Displacement of [3H]muscimol from GABAA receptor in rat synaptic membrane after 60 mins by scintillation counting analysis
Type: cell membranes
result.type: pKi
Give the figure only, with no unit attached.

Inquiry: So what's the measured pKi for this one? `Cc1nn(O)cc1CN`
Reply text: 4.16

Inquiry: Entry under review: `NCc1cnn(O)c1` . Reported pKi?
Reply text: 6.68

Inquiry: // pKi lookup, key: `Cc1c(O)noc1CN`
Reply text: 4.28

Inquiry: Please look up its pKi: `NCc1cnn(O)c1Cl`
Reply text: 6.2

Inquiry: Could you tell me which pKi is on file for `Cc1c(CN)cnn1O` ?
Reply text: 4.82

Inquiry: Requested read-out: pKi. Entry: `NCc1cnn(O)c1Br`
Reply text: 5.56

Inquiry: Which pKi value is on record for `NCc1cn(O)nc1-c1ccc(-c2ccccc2)cc1` ?
Reply text: 4.89

Inquiry: State the recorded pKi for this entry: `CCc1nn(O)cc1CN`
Reply text: 4.03

Inquiry: Endpoint output: pKi of `NCc1cn(O)nc1-c1cccc(-c2ccccc2)c1` . Value?
Reply text: 4.81

Inquiry: May I ask what pKi has been recorded for `NCc1cn(O)nc1I` ?
Reply text: 4.5

Just for reference, ChEMBL document CHEMBL2311400 is where these values come from.
